target: human ether-à-go-go-related gene (hERG) potassium channel (human); experiment: primary screen, population patch clamp on CHO cells stably expressing hERG; higher = less effect of the substance
Sequence (Q12809 whole entry, looked up): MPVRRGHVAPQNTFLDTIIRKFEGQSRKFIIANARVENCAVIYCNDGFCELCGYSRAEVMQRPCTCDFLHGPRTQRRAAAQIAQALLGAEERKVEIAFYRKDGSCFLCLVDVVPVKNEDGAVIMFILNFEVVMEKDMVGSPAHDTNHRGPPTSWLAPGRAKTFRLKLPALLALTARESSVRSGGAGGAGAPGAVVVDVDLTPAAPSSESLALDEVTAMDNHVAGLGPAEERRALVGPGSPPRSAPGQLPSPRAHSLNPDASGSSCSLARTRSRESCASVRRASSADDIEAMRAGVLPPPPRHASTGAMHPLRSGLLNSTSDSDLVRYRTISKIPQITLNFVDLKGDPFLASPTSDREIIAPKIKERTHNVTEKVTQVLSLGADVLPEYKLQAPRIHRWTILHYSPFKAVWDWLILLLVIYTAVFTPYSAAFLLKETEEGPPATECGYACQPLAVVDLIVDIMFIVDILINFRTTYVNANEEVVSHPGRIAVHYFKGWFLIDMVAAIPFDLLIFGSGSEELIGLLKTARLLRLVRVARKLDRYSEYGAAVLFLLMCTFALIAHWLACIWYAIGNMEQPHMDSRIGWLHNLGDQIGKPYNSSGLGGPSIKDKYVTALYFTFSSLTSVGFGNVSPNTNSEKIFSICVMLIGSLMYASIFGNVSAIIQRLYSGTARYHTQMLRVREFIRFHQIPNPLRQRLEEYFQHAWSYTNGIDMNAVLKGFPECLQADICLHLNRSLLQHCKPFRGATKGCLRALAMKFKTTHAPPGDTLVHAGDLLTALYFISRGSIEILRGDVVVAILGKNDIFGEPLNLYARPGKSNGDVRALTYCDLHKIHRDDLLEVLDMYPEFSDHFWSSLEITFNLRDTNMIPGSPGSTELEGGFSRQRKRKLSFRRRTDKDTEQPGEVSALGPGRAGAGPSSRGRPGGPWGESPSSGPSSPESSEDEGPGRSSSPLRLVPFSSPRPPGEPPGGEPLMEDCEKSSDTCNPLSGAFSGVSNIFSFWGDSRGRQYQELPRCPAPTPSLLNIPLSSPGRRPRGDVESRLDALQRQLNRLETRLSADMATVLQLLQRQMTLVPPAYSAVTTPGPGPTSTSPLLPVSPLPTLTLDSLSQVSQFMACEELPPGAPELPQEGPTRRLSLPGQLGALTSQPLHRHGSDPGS
The whole screen tested about 310,000 compounds, of which about 2,200 (0.71%) showed an effect of 50% or more. The effect is printed as a negative number. Many of the other results were omitted from the sample, so strong results are more common in it than they were.
As shown below, each of these molecules has a reported hERG current change (%, negative = inhibition) at 1uM value.
Give just the numeric value; % need not be written.

Input CN1CCN(c2ccc([N+](=O)[O-])cc2NC(=O)c2ccccc2Cl)CC1 , output reported hERG current change (%, negative = inhibition) at 1uM.
-75.6

Input Cc1nc2ccc([N+](=O)[O-])cc2c(=O)n1Cc1ccc(F)cc1 , output reported hERG current change (%, negative = inhibition) at 1uM.
-9.51

Input Cn1c(SCC(=O)NCCc2ccccc2)ncc(C(=O)Nc2ccc(F)cc2)c1=O , output reported hERG current change (%, negative = inhibition) at 1uM.
12.5

Data origin: paper PMC4336329
